The measured values listed here are drawn from the supplement of paper PMC13380429.

Test system: Vero E6
Experiment: cell viability relative to DMSO; higher = less toxic
Conditions: 72 h; 1 nM
value-type: cell viability (%)
State the answer as a number, implicitly in %.

Fill blank: measured cell viability of the compound CC(C)(C)CCN1C[C@@H]2[C@@H](CNC(=O)c3cc(Cl)cc(Cl)c3)[C@@H]2C1 is ____.
101

Then what about the compound CC[C@@H]([C@H](C)O)n1ncn(-c2ccc(N3CCN(c4ccc(OC[C@@H]5CO[C@@](Cn6cncn6)(c6ccc(F)cc6F)C5)cc4)CC3)cc2)c1=O ?
98.8

Then what about the compound CCCCCC(C)N (configuration not stated) ?
96.4

Then what about the compound COc1ccc2cc3[n+](cc2c1OC)CCc1cc2c(cc1-3)OCO2 ?
107

Then what about the compound CCCCCCOc1ccccc1C(N)=O [exalamide] ?
110

Then what about the compound C[C@H](Cc1ccc2c(c1)OC(C(=O)O)(C(=O)O)O2)NC[C@H](O)c1cccc(Cl)c1 ?
97.5

Then what about the compound C[C@@H]1COC(Nc2ccc3ncnc(Nc4ccc(OCc5nccs5)c(Cl)c4)c3c2)=N1 ?
107

Then what about the compound CO[C@H]1/C=C/O[C@@]2(C)Oc3c(C)c(O)c4c(O)c(c(/C=N/N=C/N5CCCCC5)c(O)c4c3C2=O)NC(=O)/C(C)=C\C=C\[C@H](C)[C@H](O)[C@@H](C)[C@@H](O)[C@@H](C)[C@H](OC(C)=O)[C@@H]1C ?
102

Then what about the compound C1=Cc2cccc(OCC3CNCCO3)c2C1 (configuration not stated) ?
104

Then what about the compound CNC(=O)c1cccc(-c2ccc3c(N4CCOC[C@@H]4C)nc(N4CCOC[C@@H]4C)nc3n2)c1 ?
94.7

Then what about the compound Cc1ccc(N2CCN(CC[C@H]3NC(=O)c4ccccc43)CC2)cc1C ?
90.8

Then what about the compound CCCCCCCCc1ccc(CCC(N)(CO)CO)cc1 ?
105

Then what about the compound O=C(Cc1ccc(Cl)c(Cl)c1)N1CCCC[C@@H]1CN1CCCC1 ?
102

Then what about the compound CC1(C)CCC(C)(C)c2cc(Cn3cccn3)c(/C=C/c3ccc(C(=O)O)cc3)cc21 ?
100

Then what about the compound COCC[n+]1c2c(n(Cc3cnccn3)c1C)C(=O)c1ccccc1C2=O ?
90.7

Then what about the compound CC(=O)NCCNc1cc(Cl)nn2c(-c3cccc(S(=O)(=O)N(C)C)c3)c(C)nc12 ?
95.6

Then what about the compound CC(=O)N[C@H](Cc1ccc2ccccc2c1)C(=O)N[C@H](Cc1ccc(Cl)cc1)C(=O)N[C@H](Cc1cccnc1)C(=O)N[C@@H](CO)C(=O)N[C@@H](Cc1ccc(O)cc1)C(=O)N[C@H](CCCNC(N)=O)C(=O)N[C@@H](CC(C)C)C(=O)N[C@@H](CCCNC(=N)N)C(=O)N1CCC[C@H]1C(=O)N[C@H](C)C(N)=O ?
105

Then what about the compound Cc1noc(-c2ccc(-c3ccc(CC(=O)O)cc3)cc2)c1NC(=O)O[C@H](C)c1ccccc1 ?
95

Then what about the compound CCCCCCCCCCCCCCCC=O ?
106

Then what about the compound O=C(O)CCCCC(=O)O ?
94.9

Then what about the compound CC(C)(C=O)Cc1cc(C(C)(C)C)c(O)c(C(C)(C)C)c1 ?
97.1

Then what about the compound CC(C)Nc1cc(-c2c[nH]c(C(=O)N[C@H](CO)c3cccc(Cl)c3)c2)c(Cl)cn1 ?
100

Then what about the compound COc1ccc(CC(=O)NC(/N=C(\NC#N)Nc2cccc3ncccc23)C(C)(C)C)cc1OC (configuration not stated) ?
103

Then what about the compound NC(=O)c1ncn([C@@H]2O[C@H](CO)[C@@H](O)[C@H]2O)n1 ?
101

Then what about the compound CN(C)C(=O)C(=O)c1cn(C)c2cc(Cl)c(C(=O)N3CCC(Cc4ccc(F)cc4)CC3)cc12 ?
110

Then what about the compound CCOC(=O)c1cc2ccc(O)cc2oc1=O ?
92

Then what about the compound CCN(C(=O)c1c(O)c2c(Cl)cccc2n(C)c1=O)c1ccccc1 ?
99.8

Then what about the compound O=C(Nc1cc(C(F)(F)F)cc(C(F)(F)F)c1)c1cnc(Cl)nc1C(F)(F)F ?
96

Then what about the compound Cc1ccc(/C=N/NC(=O)c2ccccc2Oc2ccccc2)o1 ?
97

Then what about the compound COc1ccc(CCN(C)CCc2ccc(OC)c(OC)c2)cc1OC ?
100

Then what about the compound CCS(=O)(=O)CCn1c([N+](=O)[O-])cnc1C ?
100

Then what about the compound O=C(O)/C=C(/CC(=O)O)C(=O)O [cis-aconitic-acid] ?
99

Then what about the compound Cc1onc(-c2ccccc2)c1-c1ccc(S(N)(=O)=O)cc1 ?
102

Then what about the compound Cc1cccc(C)c1NC(=O)CN1CCCCCC1 [pincainide] ?
98.7

Then what about the compound NC(N)=O ?
97.8

Then what about the compound COc1cc(NS(=O)(=O)c2ccc(N)cc2)ncn1 ?
106

Then what about the compound Cn1nc(-c2ccc(C(F)(F)F)cc2)nc2c(=O)n(C)c(=O)nc1-2 ?
102

###

Test system: HepG2
Test: cell viability relative to DMSO; higher = less toxic
Settings: 72 h; 10 nM
What cell viability was measured for each of the following?
State the answer as a number, implicitly in %.

Fill blank: measured cell viability of the compound O=C1NCN(c2ccccc2)C12CCN(CCCC(c1ccc(F)cc1)c1ccc(F)cc1)CC2 [fluspirilene] is ____.
100

Then what about the compound COC(=O)C1=C(C)NC(C)=C([N+](=O)[O-])[C@@H]1c1ccccc1C(F)(F)F (racemic) [BAY-K-8644-(+/-)] ?
93.6

Then what about the compound CCn1cc(C(=O)O)c(=O)c2ccc(C)nc21 [nalidixic-acid] ?
108

Then what about the compound CC(C)NCC(O)c1ccccc1Cl (stereo not drawn) [clorprenaline] ?
102

Then what about the compound CC(C)[C@H](C(=O)Nc1ccc(C(=O)NO)cc1)c1ccccc1 [AR-42] ?
103

Then what about the compound CC(O)c1cc(C(=O)N[C@@H](C)Cn2ccc(-c3ccc(C#N)c(Cl)c3)n2)n[nH]1 (stereo partly drawn) [ODM-201] ?
111

Then what about the compound C[C@@H]1C[C@H]2[C@@H]3CCC4=CC(=O)C=C[C@]4(C)[C@@]3(Cl)[C@@H](O)C[C@]2(C)[C@@]1(OC(=O)c1ccco1)C(=O)CCl [MOMETASONE FUROATE] ?
116

Then what about the compound CC(=O)N[C@H]1[C@H]([C@H](O)[C@H](O)CO)OC(C(=O)O)=C[C@@H]1NC(=N)N [zanamivir] ?
95.5

Then what about the compound C[n+]1ccccc1C=NO [pralidoxime] ?
115

Then what about the compound CCn1ccnc1CC1COc2ccccc2O1 (stereo not drawn) [imiloxan] ?
91.6

Then what about the compound CCCCCCCCc1ccc(CCC(N)(CO)CO)cc1 [fingolimod] ?
105

Then what about the compound CC(=O)OC[C@H](N)C(=O)O [O-acetyl-L-serine] ?
103

Then what about the compound O=C(Nc1cccc2cccnc12)c1ccc(N2C(=O)[C@@H]3[C@H](C2=O)[C@@H]2C=C[C@H]3C2)cc1 [endo-IWR-1] ?
103

Then what about the compound CCOc1cc(N2CCC(O)CC2)ccc1Nc1ncc2c(n1)N(C)c1ccccc1C(=O)N2C [XMD8-92] ?
99.4

Then what about the compound CN=c1nc(-c2ccccc2)n(-c2ccccc2)s1 ?
99.8

Then what about the compound CC(C)(O)CS(=O)(=O)Nc1ccc2c(c1)CCN(C(=O)COc1cccnc1)C2 [Nampt-IN-1] ?
100

Then what about the compound COc1ccc2cc(-c3nc(-c4ccc([S+](C)[O-])cc4)[nH]c3-c3ccncc3)ccc2c1 (stereo not drawn) [tie2-kinase-inhibitor] ?
103

Then what about the compound O=S(=O)(O)NC1CCCCC1 [cyclamic-acid] ?
99.5

###

What cell viability was measured for each of the following?
Tested on: Caco-2
Assay: cell viability relative to DMSO; higher = less toxic
Settings: 72 h; 1000 nM
State the answer as a number, implicitly in %.

Which cell viability is reported with Caco-2 for this entry: O=C(Nc1ccc(N2CCC(C(=O)N3CCOCC3)CC2)cc1)c1cnc(Oc2ccccc2)nc1 [TFC-007] ?
97.9

Then what about the compound CC(C)Nc1cc(-c2c[nH]c(C(=O)N[C@H](CO)c3cccc(Cl)c3)c2)c(Cl)cn1 [BVD-523] ?
76.7

Then what about the compound Nc1ccccc1NC(=O)c1ccc(CNc2nccc(-c3cccnc3)n2)cc1 [mocetinostat] ?
64.4

Then what about the compound Cc1ccsc1C(=CCCN1CCC[C@@H](C(=O)O)C1)c1sccc1C [tiagabine] ?
92.3

###

Test system: Vero E6
Assay: drug sensitivity score (DSS) for viability; higher = more toxic; extreme values may be limits of the assay
Conditions: 72 h
value-type: drug sensitivity score

Fill blank: measured drug sensitivity score of the molecule N[C@@H](Cc1ccc(O)cc1)C(=O)O [plovamer-acetate] is ____.
0

Then what about the molecule O=C(O)[C@@H](S)[C@@H](S)C(=O)O ?
0

Then what about the molecule CCS(=O)(=O)N1CC(CC#N)(n2cc(-c3ncnc4[nH]ccc34)cn2)C1 ?
0

Then what about the molecule CC(C)NCC(O)c1ccc([N+](=O)[O-])cc1 (centres undefined) ?
0

Then what about the molecule NC(=O)CN1Cc2ccccc2OC1=O ?
0

Then what about the molecule CCCCC/C=C\C/C=C\C/C=C\CCCCC(=O)O ?
0

Then what about the molecule O=C(Nc1ccccc1)[C@]12C[C@H]1/C(=N\O)c1ccccc1O2 ?
0

Then what about the molecule CCN(CC)CCNC(=O)c1cc(Cl)c(N)cc1OC [metoclopramide] ?
0

Then what about the molecule NCCC(=O)N[C@@H](Cc1c[nH]cn1)C(=O)O ?
5.2

Then what about the molecule c1ccc([C@@H]2C[C@H]2NC2CCNCC2)cc1 ?
0

Then what about the molecule COc1ccc(S(=O)(=O)Nc2c(C)cc(C)cc2C)cc1 ?
0

Then what about the molecule O=P(O)(NCCCl)NCCCl [palifosfamide] ?
0

Then what about the molecule C=C(C)[C@@H]1CC[C@]2(CO)CC[C@]3(C)[C@H](CC[C@@H]4[C@@]5(C)CC[C@H](O)C(C)(C)[C@@H]5CC[C@]43C)[C@@H]12 ?
0

Then what about the molecule CC(=O)OC[C@H](N)C(=O)O ?
0

Then what about the molecule Cc1[nH]c(/C=C2\C(=O)Nc3ccc(S(=O)(=O)Cc4c(Cl)cccc4Cl)cc32)c(C)c1C(=O)N1CCC[C@@H]1CN1CCCC1 ?
3.6

Then what about the molecule O=C(/C=C/c1ccc(O)cc1)c1ccc(O)cc1O ?
0

Then what about the molecule CC[C@@H]([C@H](C)O)n1ncn(-c2ccc(N3CCN(c4ccc(OC[C@@H]5CO[C@@](Cn6cncn6)(c6ccc(F)cc6F)C5)cc4)CC3)cc2)c1=O ?
4.3

Then what about the molecule COc1[nH]c2ccc(F)cc2c1C(=O)OCC1CCN(CCNS(C)(=O)=O)CC1 ?
0

Then what about the molecule Nc1cc(C(Cl)=C(Cl)Cl)c(S(N)(=O)=O)cc1S(N)(=O)=O ?
0
